- measured_target: T1, human TGFβ3 (human, UniProt P10600 301-412)
- T1 sequence: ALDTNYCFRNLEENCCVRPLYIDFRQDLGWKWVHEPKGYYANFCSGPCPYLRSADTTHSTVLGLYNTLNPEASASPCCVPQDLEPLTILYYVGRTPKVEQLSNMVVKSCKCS
- assay_remarks: Biacore off-rate vs wt GC1008, 50 nM
reported_endpoint: kd var/kd wt

binder | endpoint_result
I54N (antibody, V domains shown, GC1008 IgG4 variant) VH: QVQLVQSGAEVKKPGSSVKVSCKASGYTFSSNVISWVRQAPGQGLEWMGGVIPNVDIANYAQRFKGRVTITADESTSTTYMELSSLRSEDTAVYYCASTLGLVLDAMDYWGQGTLVTVSS VL: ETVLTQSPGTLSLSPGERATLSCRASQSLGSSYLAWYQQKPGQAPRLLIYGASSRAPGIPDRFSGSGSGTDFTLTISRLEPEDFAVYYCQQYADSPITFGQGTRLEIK | 4.3
V55G (antibody, V domains shown, GC1008 IgG4 variant) VH: QVQLVQSGAEVKKPGSSVKVSCKASGYTFSSNVISWVRQAPGQGLEWMGGVIPIGDIANYAQRFKGRVTITADESTSTTYMELSSLRSEDTAVYYCASTLGLVLDAMDYWGQGTLVTVSS VL: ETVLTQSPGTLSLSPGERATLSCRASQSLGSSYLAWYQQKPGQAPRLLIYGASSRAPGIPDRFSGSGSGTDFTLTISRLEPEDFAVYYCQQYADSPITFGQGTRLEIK | 1.9
